system name: T1, microbial transglutaminase from Streptomyces mobaraensis (MTG) (Streptomyces mobaraensis, UniProt P81453 77-407)
T1 sequence (looked up): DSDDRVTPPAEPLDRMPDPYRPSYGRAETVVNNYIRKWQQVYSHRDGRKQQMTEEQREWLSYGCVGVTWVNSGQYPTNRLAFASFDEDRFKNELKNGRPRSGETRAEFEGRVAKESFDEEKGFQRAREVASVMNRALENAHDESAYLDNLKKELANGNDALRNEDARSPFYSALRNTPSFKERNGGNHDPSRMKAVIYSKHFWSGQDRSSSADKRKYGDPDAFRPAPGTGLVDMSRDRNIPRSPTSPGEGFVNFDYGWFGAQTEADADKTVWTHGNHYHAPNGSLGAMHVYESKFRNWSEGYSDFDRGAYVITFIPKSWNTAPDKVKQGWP
assay name: cell-based or functional assay
No end group written: not given here.
attribute measured: A (array MTG labeling signal with Z-Gln-Gly-CAD-biotin)

- binder: "RLKSK (also: flanked by G:S (3:1) linkers on peptide array) [RLKSK (SEQ ID NO: 67)]"
  test result: 13.3
- binder: "RSKLA (not fully specified) [RSKLA (SEQ ID NO: 68)]"
  test result: 13.3
- binder: "PKTKL (also: flanked by G:S (3:1) linkers on peptide array) [PKTKL (SEQ ID NO: 66)]"
  test result: 13.3
- binder: "RGTKL (also: flanked by G:S (3:1) linkers on peptide array) [RGTKL (SEQ ID NO: 60)]"
  test result: 13.4
- binder: "GYKLK (also: flanked by G:S (3:1) linkers on peptide array) [GYKLK (SEQ ID NO: 78)]"
  test result: 13.3
- binder: "FTKSK (also: flanked by G:S (3:1) linkers on peptide array) [FTKSK (SEQ ID NO: 64)]"
  test result: 13.4
- binder: "TKSKL (not fully specified) [TKSKL (SEQ ID NO: 56)]"
  test result: 13.4
- binder: "RAKYK (also: flanked by G:S (3:1) linkers on peptide array) [RAKYK (SEQ ID NO: 70)]"
  test result: 13.3
- binder: "KLGAK (also: flanked by G:S (3:1) linkers on peptide array) [KLGAK (SEQ ID NO: 72)]"
  test result: 13.3
- binder: "RSKSK (not fully specified) [RSKSK (SEQ ID NO: 62)]"
  test result: 13.4
- binder: "SKLSK (not fully specified) [SKLSK (SEQ ID NO: 71)]"
  test result: 13.3
- binder: "LSKLK (also: flanked by G:S (3:1) linkers on peptide array) [LSKLK (SEQ ID NO: 75)]"
  test result: 13.3
- binder: "SKSKL (not fully specified) [SKSKL (SEQ ID NO: 63)]"
  test result: 13.4
- binder: "QRTKL (also: flanked by G:S (3:1) linkers on peptide array) [QRTKL (SEQ ID NO: 77)]"
  test result: 13.3
- binder: "KTKYK (also: flanked by G:S (3:1) linkers on peptide array) [KTKYK (SEQ ID NO: 74)]"
  test result: 13.3
- binder: "GRSKL (also: flanked by G:S (3:1) linkers on peptide array) [GRSKL (SEQ ID NO: 69)]"
  test result: 13.3
- binder: "FPKLK (also: flanked by G:S (3:1) linkers on peptide array) [FPKLK (SEQ ID NO: 61)]"
  test result: 13.4
- binder: "KLKYK (also: flanked by G:S (3:1) linkers on peptide array) [KLKYK (SEQ ID NO: 65)]"
  test result: 13.4
- binder: "ARSKL [ARSKL (SEQ ID NO: 54)]"
  test result: 13.4
- binder: "KLSKL (also: flanked by G:S (3:1) linkers on peptide array) [KLSKL (SEQ ID NO: 57)]"
  test result: 13.4
- binder: "RGSKL (also: flanked by G:S (3:1) linkers on peptide array) [RGSKL (SEQ ID NO: 59)]"
  test result: 13.4
- binder: "NRTKL (also: flanked by G:S (3:1) linkers on peptide array) [NRTKL (SEQ ID NO: 76)]"
  test result: 13.3
